Recorded inhibition at 500 µM values for a group of compounds are listed next.
target: UniProt P22411; assay: DPP-IV inhibition assay with Gly-Pro-pNA substrate; type: biochemical; set-up: purchased Sigma Aldrich (Dublin, Ireland); settings: peptide at 500 µM
Sequence (P22411 whole entry): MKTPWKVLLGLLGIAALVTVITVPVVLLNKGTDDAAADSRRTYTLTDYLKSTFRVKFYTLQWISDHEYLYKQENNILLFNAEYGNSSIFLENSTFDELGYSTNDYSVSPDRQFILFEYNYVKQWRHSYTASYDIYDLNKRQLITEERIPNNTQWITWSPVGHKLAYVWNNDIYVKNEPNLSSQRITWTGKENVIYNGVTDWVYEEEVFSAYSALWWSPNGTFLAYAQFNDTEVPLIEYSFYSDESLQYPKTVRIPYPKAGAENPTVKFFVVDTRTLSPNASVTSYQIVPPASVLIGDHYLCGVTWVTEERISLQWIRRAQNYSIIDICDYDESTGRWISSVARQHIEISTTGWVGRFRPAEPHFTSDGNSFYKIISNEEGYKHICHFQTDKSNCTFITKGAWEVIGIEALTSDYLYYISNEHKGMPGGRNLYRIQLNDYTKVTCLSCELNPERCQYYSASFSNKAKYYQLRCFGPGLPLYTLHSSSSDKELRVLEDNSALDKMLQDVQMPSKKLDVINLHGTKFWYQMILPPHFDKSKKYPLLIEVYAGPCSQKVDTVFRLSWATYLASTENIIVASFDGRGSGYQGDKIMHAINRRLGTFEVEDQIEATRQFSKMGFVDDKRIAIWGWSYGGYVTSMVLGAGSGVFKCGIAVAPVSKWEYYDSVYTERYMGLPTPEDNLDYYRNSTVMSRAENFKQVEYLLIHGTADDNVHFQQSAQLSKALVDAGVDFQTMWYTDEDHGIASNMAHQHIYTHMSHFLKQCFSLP
Residues, ends and D or L forms follow the SMILES beside them.

These solved cases illustrate the format of a correct answer.
- Compound: "CC[C@H](C)[C@H](N)C(=O)N1CCC[C@H]1C(=O)N[C@@H](C)C(=O)O [IPA, Ile-Pro-Ala] (H-Ile-Pro-Ala-OH; N-terminus and C-terminus assumed)"
  Target under test: "UniProt P22411"
  Result: "> 65%"
- Compound: "CC[C@H](C)[C@H](N)C(=O)N[C@@H](CCCNC(=N)N)C(=O)N[C@@H](Cc1ccccc1)C(=O)O [IRF, Ile-Arg-Phe] (H-Ile-Arg-Phe-OH; N-terminus and C-terminus assumed)"
  Target under test: "UniProt P22411"
  Result: "< 25%"
- Compound: "CC[C@H](C)[C@H](N)C(=O)N1CCC[C@H]1C(=O)N[C@H](C(=O)O)[C@@H](C)CC"
  Target under test: "UniProt P22411"
  Result: "> 65%"

[in] Observed inhibition at 500 µM on UniProt P22411 for CC[C@H](C)[C@H](N)C(=O)N[C@@H](CCCNC(=N)N)C(=O)N[C@@H](CCCCN)C(=O)O [IRK, Ile-Arg-Lys] (H-Ile-Arg-Lys-OH; N-terminus and C-terminus assumed) , please.
[out] < 25%

[in] Try C[C@H](N)C(=O)N1CCC[C@H]1C(=O)N[C@@H](Cc1ccccc1)C(=O)O [APF, Ala-Pro-Phe] (H-Ala-Pro-Phe-OH; N-terminus and C-terminus assumed) next.
[out] > 65%
